- ASSAY NOTES: Measurement of kinetic solubility
- SETUP CONDITIONS: pH 6.5, aqueous buffer, kinetic from dmso stock
ASSAY METRIC: solubility

solubility for CCNCc1cncc(-c2ccc3[nH]nc(-c4ncc(C(=O)N5CCN(Cc6ccccc6)CC5)[nH]4)c3c2)c1C is > 120 µg/mL

* * *

- MEASURED ON: CDK2/Cyclin A (Homo sapiens)
- Construct: made in house; host or cells: CDK2: insect cells (baculovirus); cyclin A: E. coli
- ASSAY NOTES: Inhibition of CDK2/Cyclin A retinoblastoma kinase activity (apparent Ki)
- Format: biochemical
- SETUP CONDITIONS: read-out: CDK2 Ki
- Procedure: Cyclin-dependent kinase activity was measured by quantifying the enzyme-catalyzed, time-dependent incorporation of radioactive phosphate from [^32P]ATP or [^33P]ATP into a protein substrate. […] Radioactivity was quantified by exposing the dried membranes to a phosphorimager. Apparent Ki values were measured by assaying enzyme activity in the presence of different inhibitor compound concentrations and subtracting the background radioactivity measured in the absence of enzyme. […]
Would you kindly list Ki for each of these compounds?

CHEMICAL SMILES | MEASURED ON | OBSERVED MEASUREMENT
CCNCc1cncc(-c2ccc3[nH]nc(-c4nc(-c5cc(Cl)cc(Cl)c5)c(C)[nH]4)c3c2)c1C | CDK2/Cyclin A (Homo sapiens) | < 0.05 µM

For every listed record, write down its Ki.
1. CCNCc1cncc(-c2ccc3[nH]nc(-c4nc(-c5ccccc5)c(C(=O)NC)[nH]4)c3c2)c1C
2. CCNCc1cncc(-c2ccc3[nH]nc(-c4nc(-c5cccc(F)c5)c[nH]4)c3c2)c1C
3. CNCc1cncc(-c2ccc3[nH]nc(-c4ncc[nH]4)c3c2)c1C

["0.05 to 0.2 µM", "< 0.05 µM", "< 0.05 µM"]

// batch mode: one Ki value per listed entry
1. CCNCc1cncc(-c2ccc3[nH]nc(-c4ncc(C(=O)NCCC5=CCCCC5)[nH]4)c3c2)c1C
2. CCNCc1cncc(-c2ccc3[nH]nc(-c4nc(-c5ccccc5)c(C(=O)NCCCCO)[nH]4)c3c2)c1C
3. CCNCc1cncc(-c2ccc3[nH]nc(-c4nc(-c5ccccc5)c(C(=O)NCCN(C)C)[nH]4)c3c2)c1C
4. CCNCc1cncc(-c2ccc3[nH]nc(-c4ncc(C(=O)N5CCC(Cc6ncccn6)CC5)[nH]4)c3c2)c1C
5. COCc1cncc(-c2ccc3[nH]nc(-c4nc5c([nH]4)CCCC5)c3c2)c1C
6. CCNCc1cncc(-c2ccc3[nH]nc(-c4ncc(C(=O)N5CCN(CCOC)CC5)[nH]4)c3c2)c1C

1: < 0.05 µM; 2: > 0.2 µM; 3: > 0.2 µM; 4: < 0.05 µM; 5: < 0.05 µM; 6: < 0.05 µM

Report Ki for every entry below.
1. CCNCc1cncc(-c2ccc3[nH]nc(-c4nc(-c5ccccc5)c(C(=O)NC5CCCCC5)[nH]4)c3c2)c1C
2. CCNCc1cncc(-c2ccc3[nH]nc(-c4nc(C(=O)NC5CCCC5)c[nH]4)c3c2)c1C

0.05 to 0.2 µM
< 0.05 µM

Provide the reported Ki of each entry below, same order.
1. CCNCc1cncc(-c2ccc3[nH]nc(-c4ncc(C(=O)N[C@H]5CCCCNC5=O)[nH]4)c3c2)c1C
2. CCNCc1cncc(-c2ccc3[nH]nc(-c4ncc[nH]4)c3c2)c1C
3. CCNCc1cncc(-c2ccc3[nH]nc(-c4nc(-c5ccccc5)c(C)[nH]4)c3c2)c1C

1. < 0.05 µM
2. < 0.05 µM
3. < 0.05 µM

* * *

- System: Cyclin-dependent kinase
- ASSAY NOTES: Cyclin-dependent kinase inhibition, % inhibition at 10 nM (library Examples 99-270)
- Format: biochemical
- SETUP CONDITIONS: 10 nM compound
- Method: Cyclin-dependent kinase activity was measured by quantifying the enzyme-catalyzed, time-dependent incorporation of radioactive phosphate from [^32P]ATP or [^33P]ATP into a protein substrate. […] The phosphorylated substrate was then captured on a nitrocellulose or phosphocellulose membrane using a 96-well filtration manifold, and unincorporated radioactivity was removed by repeated washing with 0.85% phosphoric acid. Radioactivity was quantified by exposing the dried membranes to a phosphorimager. […]
ASSAY METRIC: % Inhib @ 10 nM (%)
Give bare numbers, in %.

The examples below pair each entry with its known result.
MOLECULE | % Inhib @ 10 nM / %
CCNCc1cncc(-c2ccc3[nH]nc(-c4ncc(C(=O)N5CCC(C)(c6cccc(OC)c6)C5)[nH]4)c3c2)c1C (stereo not shown) | 67
CCNCc1cncc(-c2ccc3[nH]nc(-c4ncc(C(=O)NCC5COCCO5)[nH]4)c3c2)c1C (stereo not shown) | 47
CCNCc1cncc(-c2ccc3[nH]nc(-c4ncc(C(=O)N5CCN(Cc6ccccn6)CC5)[nH]4)c3c2)c1C | 50
CCNCc1cncc(-c2ccc3[nH]nc(-c4ncc(C(=O)NCCc5nnc(CC(C)C)o5)[nH]4)c3c2)c1C | 27
CCNCc1cncc(-c2ccc3[nH]nc(-c4ncc(C(=O)N5CCC6CCCCC6C5)[nH]4)c3c2)c1C (stereo not shown) | 69
CCNCc1cncc(-c2ccc3[nH]nc(-c4ncc(C(=O)N5CCC(O)(Cc6ccccc6)CC5)[nH]4)c3c2)c1C | 71

Proceeding to the next molecule to report its % Inhib @ 10 nM.
Recorded result, CCNCc1cncc(-c2ccc3[nH]nc(-c4ncc(C(=O)N5CCC(c6nnc(C7CC7)o6)CC5)[nH]4)c3c2)c1C , % Inhib @ 10 nM: 46

* * *

Would you kindly list Ki for each of these molecules?
- MEASURED ON: CDK2/Cyclin A (Homo sapiens)
- Construct: made in house; host or cells: CDK2: insect cells (baculovirus); cyclin A: E. coli
- ASSAY NOTES: Inhibition of CDK2/Cyclin A retinoblastoma kinase activity (apparent Ki)
- Format: biochemical
- SETUP CONDITIONS: read-out: CDK2 Ki

MOLECULE | MEASURED ON | OBSERVED MEASUREMENT
CCNCc1cncc(-c2ccc3[nH]nc(-c4nc(-c5ccccc5)c[nH]4)c3c2)c1C | CDK2/Cyclin A (Homo sapiens) | < 50 nM
CCCc1nc(-c2n[nH]c3ccc(-c4cncc(CNCC)c4C)cc23)[nH]c1C | CDK2/Cyclin A (Homo sapiens) | < 50 nM

Batch request: Ki for each of the following molecules.
1. CCNCc1cncc(-c2ccc3[nH]nc(-c4ncc(C(=O)N(C)C5CCN(C)C5)[nH]4)c3c2)c1C (stereo not shown)
2. CCNCc1cncc(-c2ccc3[nH]nc(-c4nc(CC)c(CC)[nH]4)c3c2)c1C
3. CCOCc1cncc(-c2ccc3[nH]nc(-c4ncc[nH]4)c3c2)c1C
4. Cc1c(CNC(C)C)cncc1-c1ccc2[nH]nc(-c3ncc[nH]3)c2c1
5. CCNCc1cncc(-c2ccc3[nH]nc(-c4nc(C(=O)NCc5cccnc5)c[nH]4)c3c2)c1C
6. CCNCc1cncc(-c2ccc3[nH]nc(-c4nc(C(=O)NC5CCNCC5)c[nH]4)c3c2)c1C
7. CCNCc1cncc(-c2ccc3[nH]nc(-c4ncc(C(=O)N5CCN(c6ccccc6)CC5)[nH]4)c3c2)c1C

1. 50 to 200 nM
2. < 50 nM
3. 50 to 200 nM
4. < 50 nM
5. < 50 nM
6. 50 to 200 nM
7. < 50 nM

* * *

Field: pKi. Provide a value for each of the compounds that follow.
- MEASURED ON: CDK2/Cyclin A (Homo sapiens, UniProt P24941)
- Construct: made in house; host or cells: CDK2: insect cells (baculovirus); cyclin A: E. coli
- ASSAY NOTES: Inhibition of CDK2/Cyclin A retinoblastoma kinase activity (apparent Ki)
- Assay type: biochemical
- SETUP CONDITIONS: read-out: CDK2 Ki
pKi: −log10 of the molar value.

COMPOUND | MEASURED ON | pKi
CCNCc1cncc(-c2ccc3[nH]nc(-c4ncc(C(=O)N[C@@H]5CCc6ccccc65)[nH]4)c3c2)c1C [Example 51] | CDK2/Cyclin A (Homo sapiens, UniProt P24941) | > 7.30
CCNCc1cncc(-c2ccc3[nH]nc(-c4ncc(C(=O)N5CCN(Cc6ccccn6)CC5)[nH]4)c3c2)c1C [Example 83] | CDK2/Cyclin A (Homo sapiens, UniProt P24941) | > 7.30
CCNCc1cncc(-c2ccc3[nH]nc(-c4nc(C(=O)N5CCCCC5)c[nH]4)c3c2)c1C [Example 62] | CDK2/Cyclin A (Homo sapiens, UniProt P24941) | > 7.30
CCNCc1cncc(-c2ccc3[nH]nc(-c4nc(-c5ccccc5)c(C(=O)NCc5ccccc5)[nH]4)c3c2)c1C [Example 5] | CDK2/Cyclin A (Homo sapiens, UniProt P24941) | > 7.30
CCNCc1cncc(-c2ccc3[nH]nc(C(N)=O)c3c2)c1C [Example 97] | CDK2/Cyclin A (Homo sapiens, UniProt P24941) | 6.70 to 7.30

# batch size: 8; output pKi per entry
1. CCNCc1cncc(-c2ccc3[nH]nc(-c4cnc(-c5ccncc5)[nH]4)c3c2)c1C [Example 96]
2. CCNCc1cncc(-c2ccc3[nH]nc(-c4nc5c([nH]4)CCCC5)c3c2)c1C [Example 21]
3. c1ncc(-c2n[nH]c3ccc(-c4cncc5[nH]ccc45)cc23)[nH]1 [Example 95]
4. CCNCc1cncc(-c2ccc3[nH]nc(-c4ncc(C(=O)N5Cc6ccccc6C5)[nH]4)c3c2)c1C [Example 68]
5. CCNCc1cncc(-c2ccc3[nH]nc(-c4nc(C(=O)N5CCCCCC5)c[nH]4)c3c2)c1C [Example 74]
6. CCNCc1cncc(-c2ccc3[nH]nc(-c4ncc(C(=O)N5CCOCC5)[nH]4)c3c2)c1C [Example 55]
7. CCNCc1cncc(-c2ccc3[nH]nc(-c4nc(-c5ccccc5)c(C(=O)NCC(C)C)[nH]4)c3c2)c1C [Example 7]
8. CCOCc1cncc(-c2ccc3[nH]nc(-c4nc5c([nH]4)CCCC5)c3c2)c1C [Example 43]

1: 6.70 to 7.30; 2: > 7.30; 3: > 7.30; 4: > 7.30; 5: > 7.30; 6: > 7.30; 7: 6.70 to 7.30; 8: 6.70 to 7.30
